readoutLabel: melting point

Look over these answered cases.
O=C(O)C1=Cc2ccccc2SC1C(F)(F)F (stereo not shown) [Example 151]; 187 to 190 °C
O=C(O)C1=Cc2cc(Cl)cc(-c3nc4ccccc4[nH]3)c2OC1C(F)(F)F (stereo not shown) [Example 110]; > 300 °C
Cc1ccc2c(c1)C=C(C(=O)O)C(C(F)(F)F)S2 (stereo not shown) [Example 145]; 180.8 to 184.2 °C
O=C(O)C1=Cc2cc(Cl)c(C(F)(F)F)cc2OC1C(F)(F)F (stereo not shown) [Example 94]; 180.9 to 182.4 °C
C[S+]([O-])c1ccc2c(c1)C=C(C(=O)O)C(C(F)(F)F)O2 (stereo not shown) [Example 86]; 148.3 to 151 °C

Shift focus to the following entry.
Return the recorded melting point value; entry: COc1ccc(Oc2ccc3c(c2)C=C(C(=O)O)C(C(F)(F)F)O3)cc1Cl (stereo not shown) [Example 9]
205 to 207 °C
